assay: Stability testing of lenalidomide cocrystals; type: physicochemical; design: key: the solids remained as the starting cocrystal material, indicating that they are stable under these conditions (“stable”); transformed partially or completely into a different crystalline material, indicating that they are not stable under these conditions (“not stable”); conditions: stored at 40 degrees Celsius and 75% relative humidity (saturated NaCl) for 14 days, XRPD

compound	Stability test result
Nc1cccc2c1CN(C1CCC(=O)NC1=O)C2=O (stereo not shown) [oxallic acid cocrystal of lenalidomide]	stable
Nc1cccc2c1CN(C1CCC(=O)NC1=O)C2=O (stereo not shown) [ammonium chloride cocrystal of lenalidomide]	stable
Nc1cccc2c1CN(C1CCC(=O)NC1=O)C2=O (stereo not shown) [propyl gallate cocrystal of lenalidomide]	not stable
Nc1cccc2c1CN(C1CCC(=O)NC1=O)C2=O (stereo not shown) [urea cocrystal of lenalidomide]	stable
Nc1cccc2c1CN(C1CCC(=O)NC1=O)C2=O (stereo not shown) [malonic acid cocrystal of lenalidomide]	not stable
Nc1cccc2c1CN(C1CCC(=O)NC1=O)C2=O (stereo not shown) [gallic acid cocrystal of lenalidomide]	stable
Nc1cccc2c1CN(C1CCC(=O)NC1=O)C2=O [L-tartaric acid cocrystal of lenalidomide]	not stable
